Tested on: Uterine Eosinophil Peroxidase (EPO)
assayProtocol: Uterine Eosinophil Peroxidase (EPO) Assay
Type: in vivo, female Sprague Dawley rats (ovariectomized)
Set-up: unit not given here
cond: 0.1 mg/kg, oral, daily for 4 days, OVX rats; 450 nm
measure: Uterine EPO (V. max)
I only need the number, thanks.

molecule | measure | readoutNumber
O=S(=O)(Oc1ccc2c(c1)OC(c1ccc(OCCN3CCCCC3)cc1)c1c-2sc2cc(OS(=O)(=O)C(F)(F)F)ccc12)C(F)(F)F (stereo not drawn) [Example 6] | Uterine EPO (V. max) | 4.2
CC(C)(C)C(=O)Oc1ccc2c(c1)OC(c1ccc(OCCN3CCCCC3)cc1)c1c-2sc2cc(OC(=O)C(C)(C)C)ccc12 (stereo not drawn) [Example 4] | Uterine EPO (V. max) | 3.3
CCCCS(=O)(=O)Oc1ccc2c(c1)OC(c1ccc(OCCN3CCCCC3)cc1)c1c-2sc2cc(OS(=O)(=O)CCCC)ccc12 (stereo not drawn) [Example 5] | Uterine EPO (V. max) | 4.5

Recorded result, c1ccc2c(c1)OC(c1ccc(OCCN3CCCCC3)cc1)c1c-2sc2ccccc12 (stereo not drawn) [Example 7] , Uterine EPO (V. max): 4.8

What the record says about C#CC1(O)CCC2C3CCc4cc(O)ccc4C3CCC21C (stereo not drawn) [EE2, 17α-ethynyl estradiol, reference compound] : Uterine EPO (V. max) is 116.4

# Uterine EPO (V. max) of Oc1ccc2c(c1)OC(c1ccc(OCCN3CCCCC3)cc1)c1c-2ccc2cc(O)ccc12 (stereo not drawn) [Example 11b] = 9.3

For this molecule ( Oc1ccc2c(c1)OC(c1ccc(OCCN3CCCCC3)cc1)c1c-2oc2cc(O)ccc12 (stereo not drawn) [Example 11] ), measured Uterine EPO (V. max) is 2.7

----------
Tested on: Uterine Eosinophil Peroxidase (EPO)
assayProtocol: Uterine Eosinophil Peroxidase (EPO) Assay
Format: in vivo, female Sprague Dawley rats (ovariectomized)
Set-up: unit not given here
cond: 1.0 mg/kg, oral, daily for 4 days, OVX rats; 450 nm
measure: Uterine EPO (V. max)
// keep it numeric: no unit symbol after the value

compound | readoutNumber
Oc1ccc2c(c1)OC(c1ccc(OCCN3CCCCC3)cc1)c1c-2ccc2cc(O)ccc12 (stereo not drawn) [Example 11b] | 12.0
Oc1ccc2c(c1)CN(c1ccc(OCCN3CCCCC3)cc1)c1c-2ccc2cc(O)ccc12 | 36.0

Given item CCCCS(=O)(=O)Oc1ccc2c(c1)OC(c1ccc(OCCN3CCCCC3)cc1)c1c-2sc2cc(OS(=O)(=O)CCCC)ccc12 (stereo not drawn) , the value recorded as its Uterine EPO (V. max) is 4.8

Short answer for O=S(=O)(Oc1ccc2c(c1)OC(c1ccc(OCCN3CCCCC3)cc1)c1c-2sc2cc(OS(=O)(=O)C(F)(F)F)ccc12)C(F)(F)F (stereo not drawn) : Uterine EPO (V. max) was 1.8

Recorded result, CC(C)(C)C(=O)Oc1ccc2c(c1)OC(c1ccc(OCCN3CCCCC3)cc1)c1c-2sc2cc(OC(=O)C(C)(C)C)ccc12 (stereo not drawn) , Uterine EPO (V. max): 3.3

# compound O=C(Oc1ccc2c(c1)OC(c1ccc(OCCN3CCCCC3)cc1)c1c-2sc2cc(OC(=O)c3ccccc3)ccc12)c1ccccc1 (stereo not drawn) ; its Uterine EPO (V. max) = 3.0

----------
Tested on: Serum Cholesterol
assayProtocol: Serum cholesterol analysis in ovariectomized rats
Format: in vivo, female Sprague Dawley rats (ovariectomized)
cond: Rattus norvegicus, 96 h; 1.0 mg/kg, oral, daily for 4 days, OVX rats; read-out: Serum Cholesterol (% decrease vs. OVX)
measure: inhibition in vivo at 1 mg/kg (%)
Report only the number, with the unit % understood.

molecule | targetEntity | unitsOfMeasure | readoutNumber
c1ccc2c(c1)OC(c1ccc(OCCN3CCCCC3)cc1)c1c-2sc2ccccc12 (stereo not drawn) [Example 7] | Serum Cholesterol | % | 65.5
CC(C)(C)C(=O)Oc1ccc2c(c1)OC(c1ccc(OCCN3CCCCC3)cc1)c1c-2sc2cc(OC(=O)C(C)(C)C)ccc12 (stereo not drawn) [Example 4] | Serum Cholesterol | % | 48.2
Oc1ccc2c(c1)OC(c1ccc(OCCN3CCCC3)cc1)c1c-2sc2cc(O)ccc12 (stereo not drawn) [Example 8] | Serum Cholesterol | % | 68

inhibition in vivo at 1 mg/kg for O=C(Oc1ccc2c(c1)OC(c1ccc(OCCN3CCCCC3)cc1)c1c-2sc2cc(OC(=O)c3ccccc3)ccc12)c1ccccc1 (stereo not drawn) [Example 3] is 50.8

// inhibition in vivo at 1 mg/kg lookup, molecule = Oc1ccc2c(c1)OC(c1ccc(OCCN3CCCCC3)cc1)c1c-2oc2cc(O)ccc12 (stereo not drawn) [Example 11] , result: 30.9

inhibition in vivo at 1 mg/kg reading for O=S(=O)(Oc1ccc2c(c1)OC(c1ccc(OCCN3CCCCC3)cc1)c1c-2sc2cc(OS(=O)(=O)C(F)(F)F)ccc12)C(F)(F)F (stereo not drawn) [Example 6] : 9.9

----------
Test system: uterus
assayProtocol: Wet uterine weight in ovariectomized rats (post-menopausal model)
Format: in vivo, female Sprague Dawley rats (ovariectomized)
cond: Rattus norvegicus, 96 h; 0.1 mg/kg, oral, daily for 4 days, OVX rats; read-out: Uterine Weight (% increase vs. OVX)
# cutoff 20% applies to change in vivo at 0.1 mg/kg; >= gives 1, < gives 0

Look over these answered cases.
compound | cat
Oc1ccc2c(c1)CN(c1ccc(OCCN3CCCCC3)cc1)c1c-2ccc2cc(O)ccc12 | 1
O=S(=O)(Oc1ccc2c(c1)OC(c1ccc(OCCN3CCCCC3)cc1)c1c-2sc2cc(OS(=O)(=O)C(F)(F)F)ccc12)C(F)(F)F (centres unmarked) | 1
Oc1ccc2c(c1)OC(c1ccc(OCCN3CCCCC3)cc1)c1c-2oc2cc(O)ccc12 (centres unmarked) | 0
Oc1ccc2c(c1)OC(c1ccc(OCCN3CCCCC3)cc1)c1c-2sc2cc(O)ccc12 (centres unmarked) | 1
CN(C)CCOc1ccc(C2Oc3cc(O)ccc3-c3sc4cc(O)ccc4c32)cc1 (centres unmarked) | 1

In: Reported change in vivo at 0.1 mg/kg at or above 20%? CCCCS(=O)(=O)Oc1ccc2c(c1)OC(c1ccc(OCCN3CCCCC3)cc1)c1c-2sc2cc(OS(=O)(=O)CCCC)ccc12 (centres unmarked)
Out: 0

In: Reported change in vivo at 0.1 mg/kg at or above 20%? Oc1ccc2c(c1)OC(c1ccc(OCCN3CCCC3)cc1)c1c-2sc2cc(O)ccc12 (centres unmarked)
Out: 1

In: Could you please find out whether CC(C)(C)C(=O)Oc1ccc2c(c1)OC(c1ccc(OCCN3CCCCC3)cc1)c1c-2sc2cc(OC(=O)C(C)(C)C)ccc12 (centres unmarked) has change in vivo at 0.1 mg/kg that meets 20% or exceeds it?
Out: 0

----------
Tested on: Serum Cholesterol
assayProtocol: Serum cholesterol analysis in ovariectomized rats
Type: in vivo, female Sprague Dawley rats (ovariectomized)
cond: Rattus norvegicus, 96 h; 1.0 mg/kg, oral, daily for 4 days, OVX rats; read-out: Serum Cholesterol (% decrease vs. OVX)
measure: inhibition in vivo at 1 mg/kg (%)
Expressed in %, but write only the number.

Sample records with inhibition in vivo at 1 mg/kg:
compound | readoutNumber
Oc1ccc2c(c1)OC(c1ccc(OCCN3CCCCC3)cc1)c1c-2sc2cc(O)ccc12 (stereo not shown) | 51
Oc1ccc2c(c1)OC(c1ccc(OCCN3CCCCC3)cc1)c1c-2ccc2cc(O)ccc12 (stereo not shown) [Example 11b] | 73.9
Oc1ccc2c(c1)CN(c1ccc(OCCN3CCCCC3)cc1)c1c-2ccc2cc(O)ccc12 | 60.7

inhibition in vivo at 1 mg/kg of CCCCS(=O)(=O)Oc1ccc2c(c1)OC(c1ccc(OCCN3CCCCC3)cc1)c1c-2sc2cc(OS(=O)(=O)CCCC)ccc12 (stereo not shown) , assay on Serum Cholesterol, is 61.3

----------
# inhibition in vivo at 0.1 mg/kg listing for each entry below
Tested on: Serum Cholesterol
assayProtocol: Serum cholesterol analysis in ovariectomized rats
Format: in vivo, female Sprague Dawley rats (ovariectomized)
cond: Rattus norvegicus, 96 h; 0.1 mg/kg, oral, daily for 4 days, OVX rats; read-out: Serum Cholesterol (% decrease vs. OVX)
Field format: number, assumed %, no unit text.

molecule | inhibition in vivo at 0.1 mg/kg [%]
c1ccc2c(c1)OC(c1ccc(OCCN3CCCCC3)cc1)c1c-2sc2ccccc12 (stereo not drawn) [Example 7] | 39.8
Oc1ccc2c(c1)OC(c1ccc(OCCN3CCCCC3)cc1)c1c-2sc2cc(O)ccc12 (stereo not drawn) [Example 1] | 72.8
CCCCS(=O)(=O)Oc1ccc2c(c1)OC(c1ccc(OCCN3CCCCC3)cc1)c1c-2sc2cc(OS(=O)(=O)CCCC)ccc12 (stereo not drawn) [Example 5] | -9

Alright, here's another molecule for you.
Sure, the documented inhibition in vivo at 0.1 mg/kg for CC(C)(C)C(=O)Oc1ccc2c(c1)OC(c1ccc(OCCN3CCCCC3)cc1)c1c-2sc2cc(OC(=O)C(C)(C)C)ccc12 (stereo not drawn) [Example 4] is 62.6
